system: clinical strains of Klebsiella pneumoniae; assay: MIC, clinical strains of K. pneumoniae; type: cell-based; parameters: unit: μg/ml; settings: Klebsiella pneumoniae clinical strain 3; microdilution, Muller Hinton broth-cation adjusted, 0.02% BSA, 0.2% acetic acid
Where a SMILES comes first, the peptide text is derived from it. [ ]: non-standard residue; d: D form.
Assay readout: Minimum inhibitory concentration
// keep it numeric: no unit symbol after the value

Some solved cases for reference:
CC[C@@H](C)[C@@H](NC(=O)[C@@H](CC(C)C)NC(=O)[C@@H](CCCNC(=N)N)NC(=O)[C@H](N)CCCNC(=N)N)C(=O)N[C@H](Cc1c[nH]c2ccccc12)C(=O)N[C@H](CCCNC(=N)N)C(=O)N[C@H](CCCNC(=N)N)C(=O)N[C@H](Cc1ccccc1)C(=O)N[C@H](CCCCN)C(=O)N[C@H](Cc1c[nH]c2ccccc12)C(=O)N[C@H](CC(C)C)C(=O)N[C@H](CCCNC(=N)N)C(=O)O [Chain204D] (H-[dR][dR][dL][dI][dW][dR][dR][dF][dK][dW][dL][dR]-OH) | 16
CC[C@@H](C)[C@@H](NC(=O)[C@@H](Cc1c[nH]c2ccccc12)NC(=O)[C@H](N)CCCCN)C(=O)N[C@@H](C(=O)N[C@H](Cc1c[nH]c2ccccc12)C(=O)N[C@H](CCCNC(=N)N)C(=O)N[C@H](Cc1c[nH]c2ccccc12)C(=O)N[C@H](CCCNC(=N)N)C(=O)N[C@H](Cc1ccccc1)C(=O)N[C@H](CCCCN)C(=O)N[C@H](CCCNC(=N)N)C(=O)O)C(C)C [Chain201D] (H-[dK][dW][dI][dV][dW][dR][dW][dR][dF][dK][dR]-OH) | 4
CC(C)C[C@@H](NC(=O)[C@H](N)CCCNC(=N)N)C(=O)N[C@H](CCCCN)C(=O)N[C@H](Cc1c[nH]c2ccccc12)C(=O)N[C@H](Cc1ccccc1)C(=O)N[C@H](CC(C)C)C(=O)N[C@H](CC(C)C)C(=O)N[C@H](Cc1ccccc1)C(=O)N[C@H](CCCNC(=N)N)C(=O)N[C@H](CCCCN)C(=O)N[C@H](CCCNC(=N)N)C(=O)O [Chain308D] (H-[dR][dL][dK][dW][dF][dL][dL][dF][dR][dK][dR]-OH) | 4

Attention now turns to another entry.
Req: Find Minimum inhibitory concentration (clinical strains of Klebsiella pneumoniae) for the entry CC(C)C[C@@H](NC(=O)[C@H](N)CCCCN)C(=O)N[C@H](CCCCN)C(=O)N[C@H](Cc1c[nH]c2ccccc12)C(=O)N[C@H](Cc1ccccc1)C(=O)N[C@H](Cc1c[nH]c2ccccc12)C(=O)N[C@H](CC(C)C)C(=O)N[C@H](Cc1ccccc1)C(=O)N[C@H](CCCCN)C(=O)N[C@H](CCCCN)C(=O)N[C@H](CCCNC(=N)N)C(=O)O [Chain311D] (H-[dK][dL][dK][dW][dF][dW][dL][dF][dK][dK][dR]-OH)
Resp: 4
